This collection of values is drawn from patent US5736558A.

# measured_target: 5HT1a receptors (Rattus norvegicus, UniProt P19327)
# Construct: membrane corresponding to 1 mg of rat cortex; from tissue; host or cells: rat cortex membrane
# Sequence (P19327 1-422): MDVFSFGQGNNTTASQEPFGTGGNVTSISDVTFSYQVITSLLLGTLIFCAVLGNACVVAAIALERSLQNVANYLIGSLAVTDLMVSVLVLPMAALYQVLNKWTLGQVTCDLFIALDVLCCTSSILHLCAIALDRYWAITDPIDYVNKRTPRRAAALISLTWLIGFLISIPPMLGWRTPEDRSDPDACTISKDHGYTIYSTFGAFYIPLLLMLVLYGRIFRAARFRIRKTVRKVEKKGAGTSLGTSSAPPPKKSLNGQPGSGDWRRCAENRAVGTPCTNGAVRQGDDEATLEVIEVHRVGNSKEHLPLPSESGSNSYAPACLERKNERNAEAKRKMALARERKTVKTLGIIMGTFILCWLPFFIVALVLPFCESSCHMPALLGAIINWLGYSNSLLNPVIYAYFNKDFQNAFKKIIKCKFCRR
# assay_overview: Specific binding to 5HT1a receptors ([3H]5-OH-DPAT, rat cortex membrane)
# details: 1 nM [3H]5-OH-DPAT, rat cortex, 20 min, 35° C., pH 7.4; read-out: IC50 5HT1a
outcome_measure: IC50 (µM)
Write the value in µM as a bare number.

In: Under 5HT1a receptors (Rattus norvegicus, UniProt P19327): IC50 value of `O=c1ccoc2cc(OCCCN3CCC(c4noc5cc(F)ccc45)CC3)ccc12` ?
Out: 0.383

In: Please give the result for `Cc1coc2cc(OCCCN3CCC(c4noc5cc(F)ccc45)CC3)ccc2c1=O` too.
Out: 0.249

====

pIC50 data for 5HT2 receptors (Rattus norvegicus) follow.
Please express pIC50 as -log10 of the molar concentration.

Before answering, review these 2 worked examples.
| smiles_data | pIC50 |
| --- | --- |
| O=c1ccoc2cc(OCCCN3CCC(c4noc5cc(F)ccc45)CC3)ccc12 | 7.95 |
| Cc1coc2cc(OCCCN3CCC(c4noc5cc(F)ccc45)CC3)ccc2c1=O | 7.95 |

API: the following record is the query input.
In: I'd like to know its pIC50. The compound in question is `O=c1c(CO)coc2cc(OCCCN3CCC(c4noc5cc(F)ccc45)CC3)ccc12`
Out: 8.33
